Test system: MDA-MB-468
testDescription: Antiproliferative activity against human MDA-MB-468 cells assessed as inhibition of cell growth
Type: functional, cell-based

{"columns": ["molecule", "unitAnnotation", "IC50"],
 "data": [
  ["Cc1sc2c(c1C)C(c1ccc(Cl)cc1)=N[C@@H](CC(=O)NCCCCCNc1cccc3c1CN(C1CCC(=O)NC1=O)C3=O)c1nnc(C)n1-2 (stereo partly specified)", "nM", 125]
]}

====

Tested on: RS4-11
testDescription: Antiproliferative activity against human RS4-11 cells assessed as reduction in cell viability incubated for 72 hrs under dark condition
Assay type: functional, cell-based
conditions: RS4-11, 72 h
pEC50: −log10 of the molar value.
observable: pEC50

{"columns": ["compound", "experimentalValue"],
 "data": [
  ["COc1cc(/N=N/c2cccc3c2CN(C2CCC(=O)NC2=O)C3=O)cc(OC)c1OCC(=O)NCCCCNC(=O)C[C@@H]1N=C(c2ccc(Cl)cc2)c2c(sc(C)c2C)-n2c(C)nnc21 (stereo partly specified)", 6.21]
]}

====

targetOfAssay: Bromodomain-containing protein 4 (Homo sapiens, UniProt O60885)
testDescription: Induction of BRD4 degradation in human HEK293T cells at 10 uM measured at 6 hrs relative to control
Type: cell-based
Checkbox rule: Emax lower than 70% = true (1); Emax not lower than 70% = false (0).

{"columns": ["sampleSmiles", "discreteLabel"],
 "data": [
  ["Cc1sc2c(c1C)C(c1ccc(Cl)cc1)=N[C@@H](CC(=O)NCCOCCNC(=O)CN1CCOc3cc(N(CCC#N)C(=O)CCl)ccc31)c1nnc(C)n1-2", "false (0)"],
  ["Cc1sc2c(c1C)C(c1ccc(Cl)cc1)=N[C@@H](CC(=O)NCCOCCOCCOCCOCCN1CCOc3cc(N(CCC#N)C(=O)CCl)ccc31)c1nnc(C)n1-2", "false (0)"],
  ["Cc1sc2c(c1C)C(c1ccc(Cl)cc1)=N[C@@H](CC(=O)NCCOCCOCCN1CCOc3cc(N(CCC#N)C(=O)CCl)ccc31)c1nnc(C)n1-2", "false (0)"],
  ["Cc1sc2c(c1C)C(c1ccc(Cl)cc1)=N[C@@H](CC(=O)NCCOCCOCCOCCN1CCOc3cc(N(CCC#N)C(=O)CCl)ccc31)c1nnc(C)n1-2", "true (1)"],
  ["C#CCCCC(=O)N1CCOc2ccc(N(CCC#N)C(=O)CCl)cc21", "false (0)"]
]}

====

Test system: HL-60
testDescription: Antiproliferative activity against human HL-60 cells assessed as inhibition of cell growth
Assay type: functional, cell-based
IC50 by entry:
observable: IC50 (nM)

{"columns": ["sampleSmiles", "targetOfAssay", "observable", "experimentalValue"],
 "data": [
  ["Cc1ncsc1-c1ccc(CNC(=O)[C@@H]2C[C@@H](O)CN2C(=O)[C@@H](NC(=O)COCCOCCOCCNC(=O)C[C@@H]2N=C(c3ccc(Cl)cc3)c3c(sc(C)c3C)-n3c(C)nnc32)C(C)(C)C)cc1", "HL-60", "IC50", 1.5],
  ["CCS(=O)(=O)Cc1cc2c(cc1C(=O)NCCCCCCCCCCC(=O)N[C@H](C(=O)N1C[C@@H](O)C[C@H]1C(=O)NCc1ccc(-c3scnc3C)cc1)C(C)(C)C)N(c1ncc(F)cc1F)Cc1c[nH]c3c(=O)n(C)cc-2c13", "HL-60", "IC50", 0.03],
  ["Cc1ncsc1-c1ccc([C@H](C)NC(=O)[C@@H]2C[C@@H](O)CN2C(=O)[C@@H](NC(=O)COCCCOCCNC(=O)C[C@@H]2N=C(c3ccc(Cl)cc3)c3c(sc(C)c3C)-n3c(C)nnc32)C(C)(C)C)cc1", "HL-60", "IC50", 1.5]
]}

====

Test system: RS4-11
testDescription: Antiproliferative activity against human RS4-11 cells assessed as reduction in cell viability incubated for 72 hrs under light irradiation
Type: functional, cell-based
conditions: RS4-11, light or radiation study
pEC50: −log10 of the molar value.
observable: pEC50

{"columns": ["molecule", "targetOfAssay", "observable", "experimentalValue"],
 "data": [
  ["COc1cc(/N=N/c2cccc3c2CN(C2CCC(=O)NC2=O)C3=O)cc(OC)c1OCC(=O)NCCCCNC(=O)C[C@@H]1N=C(c2ccc(Cl)cc2)c2c(sc(C)c2C)-n2c(C)nnc21 (stereo partly specified)", "RS4-11", "pEC50", 7.05]
]}

====

targetOfAssay: von Hippel-Lindau disease tumor suppressor/Bromodomain-containing protein 2 (Homo sapiens, UniProt P25440+P40337)
Sequence (P25440 whole entry): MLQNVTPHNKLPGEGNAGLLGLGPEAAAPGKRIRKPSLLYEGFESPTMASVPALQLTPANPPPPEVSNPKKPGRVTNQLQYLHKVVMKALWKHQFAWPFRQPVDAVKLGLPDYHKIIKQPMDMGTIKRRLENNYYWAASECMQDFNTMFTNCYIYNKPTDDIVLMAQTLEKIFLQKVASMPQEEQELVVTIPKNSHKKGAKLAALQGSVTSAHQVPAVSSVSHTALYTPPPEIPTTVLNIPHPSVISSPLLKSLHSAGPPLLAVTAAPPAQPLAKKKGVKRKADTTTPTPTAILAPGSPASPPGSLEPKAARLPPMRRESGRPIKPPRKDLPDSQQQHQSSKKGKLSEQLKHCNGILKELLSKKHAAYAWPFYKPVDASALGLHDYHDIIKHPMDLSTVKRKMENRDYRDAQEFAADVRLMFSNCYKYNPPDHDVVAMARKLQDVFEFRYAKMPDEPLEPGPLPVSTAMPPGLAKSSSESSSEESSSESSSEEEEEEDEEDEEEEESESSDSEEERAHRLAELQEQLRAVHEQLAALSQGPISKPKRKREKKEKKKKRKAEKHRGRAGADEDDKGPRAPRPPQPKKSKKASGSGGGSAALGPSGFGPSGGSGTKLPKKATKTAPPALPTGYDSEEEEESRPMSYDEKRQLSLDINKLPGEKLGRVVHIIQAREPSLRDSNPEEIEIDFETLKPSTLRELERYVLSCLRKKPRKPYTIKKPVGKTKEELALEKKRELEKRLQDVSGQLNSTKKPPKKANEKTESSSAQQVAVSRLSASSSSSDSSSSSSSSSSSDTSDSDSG
Sequence (P40337 whole entry): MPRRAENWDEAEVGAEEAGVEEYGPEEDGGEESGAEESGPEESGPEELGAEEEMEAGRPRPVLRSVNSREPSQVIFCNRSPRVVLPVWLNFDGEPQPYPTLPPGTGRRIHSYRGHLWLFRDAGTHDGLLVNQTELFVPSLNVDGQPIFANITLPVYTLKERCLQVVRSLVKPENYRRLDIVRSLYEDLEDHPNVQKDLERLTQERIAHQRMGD
testDescription: Protac activity at BRD2/VHL-bound E3 ligase in human 22Rv1 cells assessed as reduction c-Myc level incubated for 24 hrs by Western blot analysis

{"columns": ["sampleSmiles", "IC50"],
 "data": [
  ["Cc1ncsc1-c1ccc([C@H](C)NC(=O)[C@@H]2C[C@@H](O)CN2C(=O)[C@@H](NC(=O)COCCCOCCNC(=O)C[C@@H]2N=C(c3ccc(Cl)cc3)c3c(sc(C)c3C)-n3c(C)nnc32)C(C)(C)C)cc1", "< 1 nM"]
]}

====

targetOfAssay: Protein fem-1 homolog B/Folliculin-interacting protein 1 (Homo sapiens, UniProt Q8TF40+Q9UK73)
Sequence (Q8TF40 whole entry): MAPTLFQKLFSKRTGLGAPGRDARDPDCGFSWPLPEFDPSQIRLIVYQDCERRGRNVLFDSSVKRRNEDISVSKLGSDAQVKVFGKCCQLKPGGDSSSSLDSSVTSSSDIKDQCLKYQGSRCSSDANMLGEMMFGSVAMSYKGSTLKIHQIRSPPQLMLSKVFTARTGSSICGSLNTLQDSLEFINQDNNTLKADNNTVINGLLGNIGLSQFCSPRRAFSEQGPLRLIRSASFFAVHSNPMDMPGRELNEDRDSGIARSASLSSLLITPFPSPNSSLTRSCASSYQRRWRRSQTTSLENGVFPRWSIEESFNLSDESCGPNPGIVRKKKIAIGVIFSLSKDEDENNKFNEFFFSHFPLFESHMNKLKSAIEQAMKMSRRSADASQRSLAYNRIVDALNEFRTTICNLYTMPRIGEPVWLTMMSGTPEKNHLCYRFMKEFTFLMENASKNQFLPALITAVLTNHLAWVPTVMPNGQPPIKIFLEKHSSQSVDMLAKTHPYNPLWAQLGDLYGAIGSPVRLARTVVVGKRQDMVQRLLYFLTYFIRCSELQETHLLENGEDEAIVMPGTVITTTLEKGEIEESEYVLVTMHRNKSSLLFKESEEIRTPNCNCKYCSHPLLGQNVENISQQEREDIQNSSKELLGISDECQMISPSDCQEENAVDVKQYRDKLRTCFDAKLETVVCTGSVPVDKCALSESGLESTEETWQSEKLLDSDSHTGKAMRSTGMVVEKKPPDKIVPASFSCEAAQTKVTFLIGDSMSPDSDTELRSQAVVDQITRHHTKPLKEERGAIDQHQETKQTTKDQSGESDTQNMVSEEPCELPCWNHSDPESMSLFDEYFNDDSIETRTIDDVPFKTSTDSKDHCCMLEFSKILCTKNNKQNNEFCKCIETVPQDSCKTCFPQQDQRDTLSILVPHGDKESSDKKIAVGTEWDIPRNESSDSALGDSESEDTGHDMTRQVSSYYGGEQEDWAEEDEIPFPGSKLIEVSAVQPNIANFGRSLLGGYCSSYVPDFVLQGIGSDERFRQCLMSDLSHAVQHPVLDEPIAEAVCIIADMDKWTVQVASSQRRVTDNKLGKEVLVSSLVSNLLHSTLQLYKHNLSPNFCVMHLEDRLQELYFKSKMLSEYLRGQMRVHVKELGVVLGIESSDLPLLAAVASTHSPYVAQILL
Sequence (Q9UK73 whole entry): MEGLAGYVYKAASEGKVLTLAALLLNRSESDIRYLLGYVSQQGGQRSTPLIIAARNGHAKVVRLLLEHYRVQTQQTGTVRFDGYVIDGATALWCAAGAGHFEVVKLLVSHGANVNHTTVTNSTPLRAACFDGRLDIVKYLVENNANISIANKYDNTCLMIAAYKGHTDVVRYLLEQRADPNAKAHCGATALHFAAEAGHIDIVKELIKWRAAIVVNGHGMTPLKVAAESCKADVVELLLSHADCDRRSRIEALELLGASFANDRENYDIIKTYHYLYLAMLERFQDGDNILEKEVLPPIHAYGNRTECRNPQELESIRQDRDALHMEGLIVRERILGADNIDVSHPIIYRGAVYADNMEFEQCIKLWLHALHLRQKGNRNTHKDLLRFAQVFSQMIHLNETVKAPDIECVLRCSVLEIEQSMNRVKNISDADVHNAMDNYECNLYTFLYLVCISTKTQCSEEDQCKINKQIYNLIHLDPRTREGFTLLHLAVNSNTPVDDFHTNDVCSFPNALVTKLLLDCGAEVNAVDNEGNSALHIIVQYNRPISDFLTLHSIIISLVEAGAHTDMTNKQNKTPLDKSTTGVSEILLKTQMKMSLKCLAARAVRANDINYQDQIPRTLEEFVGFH
testDescription: Inhibition of FEMIB/FNIP1 interaction in human HEK293T cells
pIC50: −log10 of the molar value.

{"columns": ["sampleSmiles", "pIC50"],
 "data": [
  ["N#CCCN(C(=O)CCl)c1ccc2c(c1)OCCO2", 5.66]
]}

====

Tested on: BXPC-3
testDescription: Antiproliferative activity against human BXPC-3 cells assessed as inhibition of cell growth incubated for 72 hrs by MTT assay
Type: functional, cell-based
conditions: BXPC-3, 72 h
pIC50: −log10 of the molar value.

{"columns": ["compound", "targetOfAssay", "pIC50"],
 "data": [
  ["CCS(=O)(=O)Nc1ccc(Oc2ccc(F)cc2F)c(-c2cn(C)c(=O)c3[nH]ccc23)c1", "BXPC-3", 5.91],
  ["CCS(=O)(=O)Nc1ccc(Oc2ccc(F)cc2F)c(-c2cn(C)c(=O)c3[nH]c(C(=O)NCc4cn(CCOCC(=O)Nc5cccc6c5CN(C5CCC(=O)NC5=O)C6=O)nn4)cc23)c1 (configuration not stated)", "BXPC-3", 6.77]
]}
